assayMethodText: Distribution coefficient LogD7.4, shake-flask 1-octanol/MOPS buffer
Assay type: physicochemical
assaySetup: octanol/water (MOPS buffer 10^–2 M), 25 °C, 3 h
Attribute: LogD7.4
measuredEndpoint: LogD7.4

1. Cc1ncc([N+](=O)[O-])n1CC(O)CCl.Cc1ncc([N+](=O)[O-])n1CC(O)CCl.[Cl][Zn][Cl] (centres unmarked) [[Zn(onz)2Cl2]]; 0.90
2. Cc1ncc([N+](=O)[O-])n1CCCl.Cc1ncc([N+](=O)[O-])n1CCCl.[Cl][Cu][Cl] [[Cu(cenz)2Cl2]]; 0.69
3. Cc1ncc([N+](=O)[O-])n1CC(O)CCl.Cc1ncc([N+](=O)[O-])n1CC(O)CCl.[Cl-].[Cl-].[Cu+2] (centres unmarked) [[Cu(onz)2Cl2]]; 0.61
4. Cc1n(CC(O)CCl)c([N+](=O)[O-])c[n+]1[Cu-2]([Br])([Br])[n+]1cc([N+](=O)[O-])n(CC(O)CCl)c1C (centres unmarked) [[Cu(onz)2Br2]]; 0.56
5. Cc1ncc([N+](=O)[O-])n1CCCl.Cc1ncc([N+](=O)[O-])n1CCCl.[Br][Zn][Br] [[Zn(cenz)2Br2]]; 0.82
6. Cc1ncc([N+](=O)[O-])n1CCCl.Cc1ncc([N+](=O)[O-])n1CCCl.[Br][Cu][Br] [[Cu(cenz)2Br2]]; 0.62
7. Cc1ncc([N+](=O)[O-])n1CCCl.Cc1ncc([N+](=O)[O-])n1CCCl.[Cl][Zn][Cl] [[Zn(cenz)2Cl2]]; 0.86
8. Cc1n(CC(O)CCl)c([N+](=O)[O-])c[n+]1[Zn-2]([Br])([Br])[n+]1cc([N+](=O)[O-])n(CC(O)CCl)c1C (centres unmarked) [[Zn(onz)2Br2]]; 0.95
